# target desc: BcnA (Burkholderia cenocepacia, UniProt B4EE32)
# Sequence (B4EE32 27-186): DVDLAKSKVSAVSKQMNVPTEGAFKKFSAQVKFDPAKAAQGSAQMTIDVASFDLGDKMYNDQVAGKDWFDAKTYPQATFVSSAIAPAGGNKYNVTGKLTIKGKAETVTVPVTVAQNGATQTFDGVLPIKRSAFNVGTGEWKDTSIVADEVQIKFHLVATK
pKd: −log10 of the molar value.
property name: pKd

CCn1cc(C(=O)O)c(=O)c2cc(F)c(N3CCNCC3)cc21 [norfloxacin]: 2.31
